For each of the compounds below, state its MIC.
# Test system: Micrococcus luteus
# assayText: Antibacterial activity against Micrococcus luteus MTCC 2470 after 24 hrs by agar dilution method
# Assay type: functional
# testSettings: MTCC 2470, 24 h
Answer format: numeric, µg/mL implied, no suffix.

The measured MIC associated with CC(=O)NC[C@H]1CN(c2ccc(N3CCOCC3)c(F)c2)C(=O)O1 reads 1

Per the record, O=C1O[C@@H](CNS(=O)(=O)c2cccc3cccnc23)CN1c1ccc(N2CCOCC2)c(F)c1 has MIC of 8

O=C1O[C@@H](CNS(=O)(=O)c2ccc(Oc3ccccc3)cc2)CN1c1ccc(N2CCOCC2)c(F)c1 yielded MIC of 8

The measured MIC associated with O=C1O[C@@H](CNS(=O)(=O)c2ccc(C(F)(F)F)cc2)CN1c1ccc(N2CCNCC2)c(F)c1 reads 8

---

Field: MIC. Provide a value for each of the compounds that follow.
# Tested on: Staphylococcus
# assayText: Antibacterial activity against Staphylococcus MLS-16 MTCC 2940 after 24 hrs by agar dilution method
# Format: functional
# testSettings: MLS-16 MTCC 2940, 24 h
// units = µg/mL; emit number, no label

In plain terms, O=C1O[C@@H](CNS(=O)(=O)c2cccc3cccnc23)CN1c1ccc(N2CCSCC2)c(F)c1 has a documented MIC of 6

The value of MIC measured for the compound O=C1O[C@@H](CNS(=O)(=O)c2cccs2)CN1c1ccc(N2CCOCC2)c(F)c1 turned out to be 4

Note to self: MIC recorded for O=C1O[C@@H](CNS(=O)(=O)c2ccc(F)cc2Cl)CN1c1ccc(N2CCOCC2)c(F)c1 was 20

MIC recorded for this compound, CC(=O)Nc1nc(C)c(S(=O)(=O)NC[C@H]2CN(c3ccc(N4CCSCC4)c(F)c3)C(=O)O2)s1 , is 8

The compound listed as O=C1O[C@@H](CNS(=O)(=O)c2ccc(F)c(F)c2)CN1c1ccc(N2CCOCC2)c(F)c1 shows MIC equal to 10

MIC for O=C1O[C@@H](CNS(=O)(=O)c2ccc(F)cc2)CN1c1ccc(N2CCOCC2)c(F)c1 is 10

// field: MIC; key: O=C1O[C@@H](CNS(=O)(=O)c2cccs2)CN1c1ccc(N2CCSCC2)c(F)c1 ; value = 4

The reported value for O=C1O[C@@H](CNS(=O)(=O)c2ccc(C(F)(F)F)cc2)CN1c1ccc(N2CCSCC2)c(F)c1 in terms of MIC is 8

Entry CC(=O)c1ccc(S(=O)(=O)NC[C@H]2CN(c3ccc(N4CCOCC4)c(F)c3)C(=O)O2)cc1 ; MIC = 6

# MIC (compound: CC(C)(C)OC(=O)N1CCN(c2ccc(N3C[C@H](CNS(=O)(=O)c4ccc(C(F)(F)F)cc4)OC3=O)cc2F)CC1 ) is 10

According to the records, this compound O=C1O[C@@H](CNS(=O)(=O)c2ccc(Oc3ccccc3)cc2)CN1c1ccc(N2CCOCC2)c(F)c1 displays MIC of 4

Summary for this compound, CC(=O)NC[C@H]1CN(c2ccc(N3CCOCC3)c(F)c2)C(=O)O1 [LINEZOLID] : MIC is 1.5

Sample O=C1O[C@@H](CNS(=O)(=O)c2ccc(F)cc2)CN1c1ccc(N2CCNCC2)c(F)c1 ; MIC observed: 8

The compound listed as O=C1O[C@@H](CNS(=O)(=O)c2cc(S(=O)(=O)c3ccccc3)cs2)CN1c1ccc(N2CCSCC2)c(F)c1 shows MIC equal to 6

Lab book: MIC of O=C1O[C@@H](CNS(=O)(=O)c2cccc(Cl)c2)CN1c1ccc(N2CCOCC2)c(F)c1 noted as 6

Given item CC(=O)Nc1nc(C)c(S(=O)(=O)NC[C@H]2CN(c3ccc(N4CCOCC4)c(F)c3)C(=O)O2)s1 , the value recorded as its MIC is 20

The recorded MIC for entry O=C1O[C@@H](CNS(=O)(=O)c2ccc(C(F)(F)F)cc2)CN1c1ccc(N2CCOCC2)c(F)c1 equals 10

---

# System: Staphylococcus
# assayText: Antibacterial activity against Staphylococcus MLS-16 MTCC 2940 after 24 hrs by agar dilution method
# Assay type: functional
# testSettings: MLS-16 MTCC 2940, 24 h
measuredQuantity: MIC (µg/mL)
// note: answer is a bare numeric in µg/mL

MIC reported for this compound CC(C)(C)OC(=O)N1CCN(c2ccc(N3C[C@H](CNS(=O)(=O)c4ccc(F)cc4)OC3=O)cc2F)CC1 : 10

The value of MIC measured for the compound O=C1O[C@@H](CNS(=O)(=O)c2ccc(Oc3ccccc3)cc2)CN1c1ccc(N2CCSCC2)c(F)c1 turned out to be 8

Documented MIC of O=C1O[C@@H](CNS(=O)(=O)c2ccc(F)c(F)c2F)CN1c1ccc(N2CCOCC2)c(F)c1 : 6

Summary for this compound, O=C1O[C@@H](CNS(=O)(=O)c2ccc(F)c(Cl)c2)CN1c1ccc(N2CCOCC2)c(F)c1 : MIC is 6

Lab book: MIC of O=C1O[C@@H](CNS(=O)(=O)c2cc(Cl)cc(Cl)c2)CN1c1ccc(N2CCOCC2)c(F)c1 noted as 8

// MIC value for O=C1O[C@@H](CNS(=O)(=O)c2ccc(F)cc2)CN1c1ccc(N2CCSCC2)c(F)c1 : 10

MIC measured on CC(=O)c1ccc(S(=O)(=O)NC[C@H]2CN(c3ccc(N4CCSCC4)c(F)c3)C(=O)O2)cc1 = 8

// field: MIC; key: O=C1O[C@@H](CNS(=O)(=O)c2ccc(C(F)(F)F)cc2)CN1c1ccc(N2CCNCC2)c(F)c1 ; value = 6

Value of measured MIC for the entry O=C1O[C@@H](CNS(=O)(=O)c2ccc(F)c(Cl)c2)CN1c1ccc(N2CCSCC2)c(F)c1 : 8

So, O=C1O[C@@H](CNS(=O)(=O)c2cccc3cccnc23)CN1c1ccc(N2CCOCC2)c(F)c1 ? Its MIC was 10

---

# Tested on: Micrococcus luteus
# assayText: Antibacterial activity against Micrococcus luteus MTCC 2470 after 24 hrs by agar dilution method
# Assay type: functional
# testSettings: MTCC 2470, 24 h
measuredQuantity: MIC
Hey, just the number and the unit after it is fine.

// MIC lookup, molecule = O=C1O[C@@H](CNS(=O)(=O)c2ccc(F)c(Cl)c2)CN1c1ccc(N2CCOCC2)c(F)c1 , result: 6 µg/mL

For reference, reported MIC for CC(=O)c1ccc(S(=O)(=O)NC[C@H]2CN(c3ccc(N4CCOCC4)c(F)c3)C(=O)O2)cc1 stands at 6 µg/mL

// field: MIC; key: O=C1O[C@@H](CNS(=O)(=O)c2ccc(C(F)(F)F)cc2)CN1c1ccc(N2CCOCC2)c(F)c1 ; value = 8 µg/mL

Record O=C1O[C@@H](CNS(=O)(=O)c2ccc(F)cc2)CN1c1ccc(N2CCNCC2)c(F)c1 . Reported MIC: 4 µg/mL

In plain terms, CC(C)(C)OC(=O)N1CCN(c2ccc(N3C[C@H](CNS(=O)(=O)c4ccc(F)cc4)OC3=O)cc2F)CC1 has a documented MIC of 10 µg/mL

Given item O=C1O[C@@H](CNS(=O)(=O)c2cccc(Cl)c2)CN1c1ccc(N2CCOCC2)c(F)c1 , the value recorded as its MIC is 8 µg/mL

O=C1O[C@@H](CNS(=O)(=O)c2cccs2)CN1c1ccc(N2CCSCC2)c(F)c1 yielded MIC of 6 µg/mL

Looking up O=C1O[C@@H](CNS(=O)(=O)c2ccc(F)cc2)CN1c1ccc(N2CCSCC2)c(F)c1 , I see its MIC listed as 10 µg/mL

The measured MIC associated with O=C1O[C@@H](CNS(=O)(=O)c2cccs2)CN1c1ccc(N2CCOCC2)c(F)c1 reads 6 µg/mL

MIC measured on CC(C)(C)OC(=O)N1CCN(c2ccc(N3C[C@H](CNS(=O)(=O)c4ccc(C(F)(F)F)cc4)OC3=O)cc2F)CC1 = 20 µg/mL

---

# Test system: Bacillus subtilis
# assayText: Antibacterial activity against Bacillus subtilis MTCC 121 at 20 ug/ml after 24 hrs by disk diffusion method
# Assay type: functional
# testSettings: MTCC 121, 24 h, read-out: IZ
measuredQuantity: zone of inhibition at 20 µg/mL (mm)
Report the value in mm with no unit label.

response.value for O=C1O[C@@H](CNS(=O)(=O)c2ccc(C(F)(F)F)cc2)CN1c1ccc(N2CCNCC2)c(F)c1 (field: zone of inhibition at 20 µg/mL) = 16

Record summary for O=C1O[C@@H](CNS(=O)(=O)c2cccs2)CN1c1ccc(N2CCOCC2)c(F)c1 : reported zone of inhibition at 20 µg/mL = 20

Given item O=C1O[C@@H](CNS(=O)(=O)c2ccc(F)cc2)CN1c1ccc(N2CCSCC2)c(F)c1 , the value recorded as its zone of inhibition at 20 µg/mL is 23

Item: CC(=O)NC[C@H]1CN(c2ccc(N3CCOCC3)c(F)c2)C(=O)O1 [LINEZOLID] | zone of inhibition at 20 µg/mL: 10

zone of inhibition at 20 µg/mL for O=C1O[C@@H](CNS(=O)(=O)c2ccc(F)cc2)CN1c1ccc(N2CCNCC2)c(F)c1 is 20

meta.source: ChEMBL document CHEMBL2331333
